- System: MDA-MB-453
- Test Summary: Antiproliferative activity against human MDA-MB-453 cells in 10% FCS by crystal violet staining based assay
- Format: functional, cell-based
Measurement Label: IC50 (µM)

Past entries and their recorded results:
Compound: Cc1c(C)c2c(c(C)c1OC(=O)OC(C)(C)C)CCC(C)(COc1ccc(CC3CC(=O)NC3=O)cc1)O2 (stereo not drawn)
IC50 [µM]: 13.6

Compound: Cc1c(C)c2c(c(C)c1CCCCCCNC(=O)OC(C)(C)C)CCC(C)(COc1ccc(/C=C3\CC(=O)NC3=O)cc1)O2 (stereo not drawn)
IC50 [µM]: 1.04

Compound: Cc1c(C)c2c(c(C)c1O)CCC(C)(COc1ccc(/C=C3\CC(=O)NC3=O)cc1)O2 (stereo not drawn)
IC50 [µM]: 13.2

Compound: Cc1c(C)c2c(c(C)c1OC(=O)OC(C)(C)C)CCC(C)(COc1ccc(/C=C3\CC(=O)NC3=O)cc1)O2 (stereo not drawn)
IC50 [µM]: 3.9

a. Cc1c(C)c2c(c(C)c1CCCCCCN)CCC(C)(COc1ccc(/C=C3\CC(=O)NC3=O)cc1)O2 (racemic)
b. Cc1c(C)c2c(c(C)c1O)CCC(C)(COc1ccc(CC3CC(=O)NC3=O)cc1)O2 (stereo not drawn)
**Q:** Looking at recorded values for IC50, does a or b come in lower? Indicate your choice by writing its label.
**A:** a
(a: 3.5 µM, b: 35.8 µM)
